- assay text: Ratio of AUC (0 to 24 hrs) in liver to plasma in C57BL/6J mouse at 20 mg/kg, po measured for 24 hrs
- Assay type: ADME, organism-based
- stated conditions: liver and plasma, read-out: Ratio AUC
quantity name: Kp at 24 h

P: CCC(=O)N1CCC(CNC(=O)NC2CCN(C(=O)Cc3cc(OC)cc(OC)c3)CC2)CC1
Q: COc1cc(CC(=O)N2CCC(NC(=O)NCc3ccc(OC(F)(F)F)cc3)CC2)cc(OC)c1
Sorting by Kp at 24 h in descending order, would P or Q appear first? // caller expects the label of the chosen entry
P
(P: 237, Q: 50.9)
